# Experimental Target: Sphingosine 1-phosphate receptor 3 (Homo sapiens, UniProt Q99500)
# Sequence (Q99500 whole entry): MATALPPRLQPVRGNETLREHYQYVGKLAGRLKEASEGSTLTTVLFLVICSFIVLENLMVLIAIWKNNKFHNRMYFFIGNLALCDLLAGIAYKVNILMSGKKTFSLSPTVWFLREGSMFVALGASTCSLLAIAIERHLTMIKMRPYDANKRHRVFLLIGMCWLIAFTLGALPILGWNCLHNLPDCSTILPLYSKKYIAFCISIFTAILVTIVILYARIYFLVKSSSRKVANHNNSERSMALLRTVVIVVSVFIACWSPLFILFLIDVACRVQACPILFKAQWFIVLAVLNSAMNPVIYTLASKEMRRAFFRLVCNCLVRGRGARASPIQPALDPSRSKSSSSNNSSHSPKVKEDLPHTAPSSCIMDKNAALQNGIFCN
# Assay Procedure: Agonist activity at human S1P3 receptor expressed in CHO cells assessed as intracellular calcium mobilization
Test Readout: EC50

CCCCOc1ccc(-c2ccc(CCC(N)(CO)COP(=O)(O)O)c(Cl)c2)cc1 (stereo not drawn): > 1 µM
Cc1ccc(Oc2ccc(-c3ccc(CCC(N)(CO)COP(=O)(O)O)cc3)c(F)c2)cc1 (stereo not drawn): 0.083 µM
CCCCOc1cc(F)c(-c2ccc(CCC(N)(CO)COP(=O)(O)O)cc2)cc1F (stereo not drawn): > 1 µM
Cc1cccc(Sc2ccc(-c3ccc(CCC(N)(CO)COP(=O)(O)O)cc3)c(F)c2)c1 (stereo not drawn): > 1 µM
NC(CO)(CCc1ccc(-c2ccc(OCc3ccccc3)cc2)cc1Cl)COP(=O)(O)O (stereo not drawn): 0.013 µM
CCCCOc1ccc(-c2ccc(CCC(N)(CO)COP(=O)(O)O)cc2)cc1 (stereo not drawn): > 1 µM
Cc1ccc(Sc2ccc(-c3ccc(CCC(N)(CO)COP(=O)(O)O)cc3)c(F)c2)cc1 (stereo not drawn): > 1 µM
CCCCCc1ccc(-c2ccc(CCC(N)(CO)COP(=O)(O)O)c(Cl)c2)cc1 (stereo not drawn): > 1 µM
CCCCOc1ccc(-c2ccc(CCC(N)(CO)COP(=O)(O)O)cc2)cc1F (stereo not drawn): > 1 µM
NC(CO)(CCc1ccc(-c2ccc(Oc3ccccc3)cc2)cc1)COP(=O)(O)O (stereo not drawn): > 1 µM
CCCCCc1ccc(-c2ccc(CCC(N)(CO)COP(=O)(O)O)cc2)c(F)c1 (stereo not drawn): > 1 µM
NC(CO)(CCc1ccc(-c2ccc(SCc3ccccc3)cc2F)cc1)COP(=O)(O)O (stereo not drawn): 0.0049 µM
Cc1ccc(Sc2ccc(-c3ccc(CCC(N)(CO)COP(=O)(O)O)c(Cl)c3)c(F)c2)cc1 (stereo not drawn): > 1 µM
NC(CO)(CCc1ccc(-c2ccc(OCc3ccccc3)cc2F)cc1)COP(=O)(O)O (stereo not drawn): 0.0041 µM
CCCCOc1ccc(-c2ccc(CCC(N)(CO)COP(=O)(O)O)cc2)cc1Cl (stereo not drawn): > 1 µM
CCCCOc1ccc(-c2ccc(CCC(N)(CO)COP(=O)(O)O)cc2)c(F)c1.F (stereo not drawn): 0.051 µM
NC(CO)(CCc1ccc(-c2ccc(Sc3ccccc3)cc2F)cc1)COP(=O)(O)O (stereo not drawn): > 1 µM
NC(CO)(CCc1ccc(-c2ccc(Oc3ccccc3)cc2)cc1Cl)COP(=O)(O)O (stereo not drawn): > 1 µM

====

Each item that follows carries a reported pEC50.
# Experimental Target: Sphingosine 1-phosphate receptor 1 (Homo sapiens, UniProt P21453)
# Sequence (P21453 whole entry): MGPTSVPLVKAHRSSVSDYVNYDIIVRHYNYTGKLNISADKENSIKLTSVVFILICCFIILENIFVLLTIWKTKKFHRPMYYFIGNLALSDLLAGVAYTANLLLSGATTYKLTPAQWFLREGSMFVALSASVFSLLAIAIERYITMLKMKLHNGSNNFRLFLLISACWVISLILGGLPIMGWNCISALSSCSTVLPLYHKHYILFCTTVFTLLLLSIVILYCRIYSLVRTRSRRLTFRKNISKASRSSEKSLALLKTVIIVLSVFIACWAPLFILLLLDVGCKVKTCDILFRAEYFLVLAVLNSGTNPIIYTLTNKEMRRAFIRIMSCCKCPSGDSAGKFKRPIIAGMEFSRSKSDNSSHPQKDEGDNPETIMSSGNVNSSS
# Assay Procedure: Agonist activity at human S1P1 receptor expressed in human Chem1 cells assessed as intracellular calcium mobilization
pEC50: −log10 of the molar value.
Test Readout: pEC50

CCCCOc1ccc(-c2ccc(CCC(N)(CO)COP(=O)(O)O)cc2)c(F)c1.F (stereo not drawn): 9.28
CCCCOc1ccc(-c2ccc(CCC(N)(CO)COP(=O)(O)O)cc2)cc1Cl (stereo not drawn): 8.51
NC(CO)(CCc1ccc(-c2ccc(OCc3ccccc3)cc2)cc1Cl)COP(=O)(O)O (stereo not drawn): 8.80
CCCCOc1cc(F)c(-c2ccc(CCC(N)(CO)COP(=O)(O)O)cc2)cc1F (stereo not drawn): 8.92
Cc1ccc(Sc2ccc(-c3ccc(CCC(N)(CO)COP(=O)(O)O)c(Cl)c3)c(F)c2)cc1 (stereo not drawn): 8.38
CCCCCc1ccc(-c2ccc(CCC(N)(CO)COP(=O)(O)O)cc2)c(F)c1 (stereo not drawn): 8.96
NC(CO)(CCc1ccc(-c2ccc(SCc3ccccc3)cc2F)cc1)COP(=O)(O)O (stereo not drawn): 9.08
CCCCOc1ccc(-c2ccc(CCC(N)(CO)COP(=O)(O)O)cc2)cc1F (stereo not drawn): 8.89
NC(CO)(CCc1ccc(-c2ccc(Oc3ccccc3)cc2)cc1Cl)COP(=O)(O)O (stereo not drawn): 8.33
CCCCCc1ccc(-c2ccc(CCC(N)(CO)COP(=O)(O)O)c(Cl)c2)cc1 (stereo not drawn): 9.19
Cc1cccc(Sc2ccc(-c3ccc(CCC(N)(CO)COP(=O)(O)O)cc3)c(F)c2)c1 (stereo not drawn): 8.70
Cc1ccc(Oc2ccc(-c3ccc(CCC(N)(CO)COP(=O)(O)O)cc3)c(F)c2)cc1 (stereo not drawn): 8.74
NC(CO)(CCc1ccc(-c2ccc(Oc3ccccc3)cc2)cc1)COP(=O)(O)O (stereo not drawn): 7.68
NC(CO)(CCc1ccc(-c2ccc(OCc3ccccc3)cc2F)cc1)COP(=O)(O)O (stereo not drawn): 8.96
NC(CO)(CCc1ccc(-c2ccc(Sc3ccccc3)cc2F)cc1)COP(=O)(O)O (stereo not drawn): 8.44
Cc1ccc(Sc2ccc(-c3ccc(CCC(N)(CO)COP(=O)(O)O)cc3)c(F)c2)cc1 (stereo not drawn): 8.52
CCCCOc1ccc(-c2ccc(CCC(N)(CO)COP(=O)(O)O)c(Cl)c2)cc1 (stereo not drawn): 9.21
CCCCOc1ccc(-c2ccc(CCC(N)(CO)COP(=O)(O)O)cc2)cc1 (stereo not drawn): 9.09

====

# Tested on: Rattus norvegicus
# Assay Procedure: Toxicity in iv dosed Sprague-Dawley rat assessed as reduction in heart rate
# Type: organism-based
# Particulars: in vivo
Test Readout: log10 of ID50 (log10 of the value in mg/kg)

CCCCOc1ccc(-c2ccc(CCC(N)(CO)COP(=O)(O)O)cc2)cc1 (configuration not stated): -2.10
Cc1ccc(Sc2ccc(-c3ccc(CCC(N)(CO)COP(=O)(O)O)c(Cl)c3)c(F)c2)cc1 (configuration not stated): -1.80
Cc1ccc(Oc2ccc(-c3ccc(CCC(N)(CO)COP(=O)(O)O)cc3)c(F)c2)cc1 (configuration not stated): -1.80
NC(CO)(CCc1ccc(-c2ccc(OCc3ccccc3)cc2)cc1Cl)COP(=O)(O)O (configuration not stated): -1.77
NC(CO)(CCc1ccc(-c2ccc(SCc3ccccc3)cc2F)cc1)COP(=O)(O)O (configuration not stated): -2.10
CCCCOc1ccc(-c2ccc(CCC(N)(CO)COP(=O)(O)O)c(Cl)c2)cc1 (configuration not stated): -1.89
NC(CO)(CCc1ccc(-c2ccc(Oc3ccccc3)cc2)cc1)COP(=O)(O)O (configuration not stated): -0.85
CCCCCCCCc1ccc(CCC(N)(CO)COP(=O)(O)O)cc1 (configuration not stated): -1.92
Cc1cccc(Sc2ccc(-c3ccc(CCC(N)(CO)COP(=O)(O)O)cc3)c(F)c2)c1 (configuration not stated): -1.20
NC(CO)(CCc1ccc(-c2ccc(OCc3ccccc3)cc2F)cc1)COP(=O)(O)O (configuration not stated): -1.85
CCCCOc1ccc(-c2ccc(CCC(N)(CO)COP(=O)(O)O)cc2)c(F)c1.F (configuration not stated): -2.05
NC(CO)(CCc1ccc(-c2ccc(Oc3ccccc3)cc2)cc1Cl)COP(=O)(O)O (configuration not stated): -1.06
